We begin with a simple list: items and their reported growth inhibition.
- experimental_protocol: NCI Yeast Anticancer Drug Screen. Data for the wt1 strain (AID 149);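 note: 0% = growth of vehicle-treated wt1 cultures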
- assay_conditions: S. cerevisiae wt1 strain (SPY 50644) growth inhibition; at 100.0 µM; active compounds read high
This is part of a sample that, as a whole, favours compounds with a hit. Of some 79,000 tested, about 15% had one in any assay. Activity calls are given as the source filed them. Cut-off read from the data, not from the text of the source: active = growth inhibition above about 70%; inactive = the rest.

C=C[C@H]1CN2CC[C@H]1C[C@@H]2[C@@H](O)c1ccnc2ccccc12 : -2% (inactive)
CC[C@](O)(C(=O)O)c1cc2n(c(=O)c1CO)Cc1cc3ccccc3nc1-2 : 94% (active)

Next compound, please.
Request: Consider the compound shown here: Cc1c(N)nc([C@H](CC(N)=O)NC[C@H](N)C(N)=O)nc1C(=O)N[C@H](C(=O)N[C@H](C)[C@@H](O)[C@H](C)C(=O)N[C@H](C(=O)NCCc1nc(-c2nc(C(=O)NCCC[S+](C)C)cs2)cs1)[C@@H](C)O)C(OC1OC(CO)C(O)C(O)C1OC1OC(CO)C(O)C(OC(N)=O)C1O)c1cnc[nH]1 (stereo partly drawn) What is its recorded growth inhibition?
Result: 74% (active)

###

- experimental_protocol: NCI Yeast Anticancer Drug Screen. Data for the bub3 strain (AID 167)
- assay_conditions: S. cerevisiae bub3 mutant strain, at 100.0 µM, active compounds read high
The panel holds about 79,000 compounds, 15% with a hit somewhere; the sample as a whole holds those more often.
# maps each entry to its growth inhibition
Please respond with the number in % and leave the unit unwritten.

CC(Cc1ccccc1)N(C)Cc1nc(C2CCC([N+](=O)[O-])O2)no1 (stereo not given) : 79
CCOP(=S)(S)OCC.[Pd] : 83
CC1=C2C(=C[C@@](C)(CO)[C@@H]2O)C(=O)[C@](C)(O)C12CC2 : -12
S=C1NC2(CCCCC2)NC12CCCCC2 : 6
O=S(=O)(O)/C(=C\c1ccccc1)c1ccccc1 (tested in a mixture with another compound) : 1

Request: GET /values?readout=growth inhibition&item= `O=P(Oc1ccc(Cl)cc1)(Oc1ccc(Cl)cc1)N1CC1`
Result: 32

Request: Ok, now C[C@]12CCc3nonc3C1CC[C@@H]1C2CC[C@]2(C)C(=O)CCC12 (stereo not given in full)
Result: 49

Request: Another: CC(C)CC(NC(=O)C(N)C(C)C)C(=O)NC(CCCCN)C(=O)Nc1ccc(N(CCCl)CCCl)cc1 (stereo not given)
Result: -25

Request: Repeat for the following compound: `COC(=O)C1=C(C(=O)OC)SC2(S1)C(C(=O)OC)=C(C(=O)OC)Sc1c2ssc1=O`
Result: 91

Request: Now the compound `NCCc1ccc(OCc2ccccc2)c(OCc2ccccc2)c1`
Result: 96

###

- experimental_protocol: NCI Yeast Anticancer Drug Screen. Data for the mlh1 rad18 strain (AID 175)
- assay_conditions: S. cerevisiae mlh1 rad18 strain growth inhibition; at 50.0 µM; active compounds read high
This is part of a sample that, as a whole, favours compounds with a hit. Of some 79,000 tested, about 15% had one in any assay.
Classify on growth inhibition using lo: < 60%; mid: ≥ 60% and < 90%; hi: ≥ 90%

C[C@]12CC[C@H]3[C@@H](C[C@@H](F)C4=CC(=O)CC[C@@]43C)[C@@H]1CC[C@@H]2O : lo
C1CC[N-]CC1.[Cl][Au]([Cl])[Cl] : hi
O=P1(NCCCl)OC(c2ccccc2)=CCN1CCCl (stereo not given) : hi
ClCCN(CCCl)CCN1c2ccccc2Sc2ccc3ccccc3c21 : mid
Cc1cc[n+](C2=C(Nc3cccc(C(F)(F)F)c3)C(=O)c3ccccc3C2=O)cc1 : mid

Request: The entry to classify is `O=C(O)c1cc([N+](=O)[O-])c(Cl)c([N+](=O)[O-])c1Cl` ; which class holds it?
Result: lo

Request: Would you mind doing `CCCOc1ccc(/C=C/[N+](=O)[O-])cc1` as well?
Result: lo

Request: Here is the next compound: CCC(=O)OC1CCn2c1nc1c2C(=O)C(C)=C(N2CC2)C1=O (stereo not given)
Result: mid

###

- experimental_protocol: NCI Yeast Anticancer Drug Screen. Data for the bub3 strain (AID 167)
- assay_conditions: S. cerevisiae bub3 mutant strain, at 50.0 µM (retest, dose inferred, filed as 5.0), active compounds read high
About 79,000 compounds went through this panel and 15% of them were active in at least one assay; those are over-represented in the sample as a whole.
Measured growth inhibition values are reported for all entries that follow.
Write it as a number; the unit % goes unstated.

Known growth inhibition results, listed for orientation:
CCNCC(=O)O[C@]1(CC)C(=O)OCc2c1cc1n(c2=O)Cc2cc3ccccc3nc2-1 : 39
OC(c1ccc(Br)cc1)C(Cl)(Cl)Cl (stereo unspecified) : 97
Oc1ccc2nc3ccccc3nc2c1 : 61
N#CC(C#N)=Cc1ccc([N+](=O)[O-])s1 : 98
c1ccc2c(c1)[As]=c1ccccc1=[As]2 (stereo unspecified) : 98

Request: Item CCN(CC)P1(=O)OC(c2ccccc2)=CCN1c1ccc(OC)cc1 (stereo unspecified) has what recorded growth inhibition?
Result: 91

Request: Now consider `c1ccc2cc3n[se]nc3cc2c1` .
Result: 25

Request: Same question, COC1=C(C)C(=O)C2=C(C1=O)C(CO)N1C(C#N)C3CC4C(C1C2N1CCOC41)N3C (stereo unspecified) this time
Result: 76

Request: Repeat with `N#CC(=C=N)N=C(F)C(C#N)=C(C#N)C#N`
Result: 77

Request: Another: `Cc1ccc([PH+](c2ccc(C)cc2)c2ccc(C)cc2)cc1.Cc1ccc([PH+](c2ccc(C)cc2)c2ccc(C)cc2)cc1.[Cl][Hg][Cl]`
Result: 95

Request: Also CCC[CH2][Sn]([CH2]CCC)([O]C(=O)C(N)CSC)[O]C(=O)C(N)CSC (stereo unspecified) ?
Result: -4

###

- experimental_protocol: NCI Yeast Anticancer Drug Screen. Data for the rad50 strain (AID 155);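 note: 0% = growth of vehicle-only cultures of the same strain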
- assay_conditions: S. cerevisiae rad50 strain growth inhibition; at 1.2 µM; active compounds read high
This is part of a sample that, as a whole, favours compounds with a hit. Of some 79,000 tested, about 15% had one in any assay.
measurement_name: growth inhibition (%)
Write down the numeric answer in % and omit the unit.

C/C(CCl)=N/NC1=NC(c2ccccc2Cl)P(=O)(NCCCNP2(=O)SC(N/N=C(/C)CCl)=NC2c2ccccc2Cl)S1 (centres undefined) : 4
CS(=O)(=O)OCCN(CCOS(C)(=O)=O)c1ccc(C=O)cc1 : 16
C/C(=N\O)c1ccc2ccc3ccccc3c2c1 : 4

# input for lookup
Request: Recorded growth inhibition of `COc1ccc(OC)c(/C=C/[N+](=O)[O-])c1` , please.
Result: 11

###

- experimental_protocol: NCI Yeast Anticancer Drug Screen. Data for the sgs1 strain (AID 173);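 note: 0% = growth of vehicle-only control cultures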
- assay_conditions: S. cerevisiae sgs1 mutant, at 33.0 µM
This is part of a sample that, as a whole, favours compounds with a hit. Of some 79,000 tested, about 15% had one in any assay. Activity calls are given as the source filed them. Cut-off read from the data, not from the text of the source: active = growth inhibition above about 70%; inactive = the rest.
Respond using exactly one of the listed classes: 1.0 = active, 0.0 = inactive

Worked set:
CCC(=O)OC1CCn2c1nc1c2C(=O)C(C)=C(N2CC2)C1=O (stereo not drawn) : 0.0
CN(C)CCC(C(=O)C(Br)Br)(c1ccccc1)c1ccccc1 : 1.0
O=C(O)C1C2C=CC(C2)C1c1ccccc1 (stereo not drawn) : 0.0
O=C(Nc1cc(Cl)ccc1Cl)C(Cl)(Cl)Cl : 0.0
C=C[C@H]1CN2CC[C@H]1C[C@@H]2[C@@H](O)c1ccnc2ccccc12 : 0.0

Note: attention shifts to another entry.
Request: Field: outcome | Entry: CCCCCCCCCCCCCCCCP(=O)(O)OP(=O)(O)OCC1OC(n2ccc(N)nc2=O)C(O)C1O (stereo not drawn)
Result: 0.0

###

- experimental_protocol: NCI Yeast Anticancer Drug Screen. Data for the mec2-1 strain (AID 157)
- assay_conditions: S. cerevisiae mec2-1 strain, at 5.0 µM (retest, dose inferred, filed as 0.5)
- Method: Growth inhibition of yeast strains with defined genetic alterations is measured as a screen for potential anti-cancer activity. Selected strains with alterations in DNA damage repair or cell cycle control were exposed to compounds and growth inhibition was measured relative to vehicle treated controls. The strain used in this assay is mec2-1
About 79,000 compounds went through this panel and 15% of them were active in at least one assay; those are over-represented in the sample as a whole. Active and inactive are the calls of the source. Cut-off read from the data, not from the text of the source: active = growth inhibition above about 70%; inactive = the rest.
Answer with one of the outcomes given here: 1 (yes) for active, 0 (no) for inactive

Reference set (3 entries):
O=P(Nc1cccc(Cl)c1)(Oc1ccccc1)N(CCCl)CCCl (configuration not stated) : 0 (no)
CC(C)CCCC(C)CCC1C(=O)NC(=O)NC1=O (configuration not stated) : 0 (no)
O=c1oc2ccccc2c(O)c1C(c1ccco1)c1c(O)c2ccccc2oc1=O : 0 (no)

Request: Record request — test call for `CCCCCCCCCC[Se]C#N`
Result: 0 (no)

Request: Lookup `CNC(=O)Oc1ccccc1/C=N\Sc1ccc(Cl)cc1`
Result: 0 (no)

Request: Another compound to check: `CCCCCCCCCCCC(=O)[O][Hg][c]1ccccc1`
Result: 1 (yes)

Request: `O=C(O)c1ccccc1[Se][Se]c1ccccc1C(=O)O`
Result: 0 (no)

Request: Would you kindly repeat that for `CS/C([S-])=N/N=C(C)C.CS/C([S-])=N/N=C(C)C.[Ni+2]` ?
Result: 0 (no)

Request: Query `Nc1ccc(N=Nc2ccccc2)cc1` next
Result: 0 (no)

Request: `CCc1cc2c(cc1O)C(C)(C)CCC2(C)C`
Result: 0 (no)

Request: Likewise for CCC1CCCCN1CC(C(C)=O)C(c1ccccc1)c1c(O)c2ccccc2oc1=O (configuration not stated) ?
Result: 0 (no)

Request: What would you report for `O=C(CBr)Nc1ccccc1Cl` ?
Result: 0 (no)
